- Subject Of Test: T1, Bdf1 bromodomain 2 (GST-tagged, WT) (Saccharomyces cerevisiae (strain ATCC …, UniProt P35817))
- T1 chain: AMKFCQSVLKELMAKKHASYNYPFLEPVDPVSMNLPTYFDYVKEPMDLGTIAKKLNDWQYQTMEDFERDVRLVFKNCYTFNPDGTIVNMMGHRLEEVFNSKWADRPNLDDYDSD
- Method Summary: histone peptide array probed with recombinant GST-bromodomain, signal normalised to myc peptide control
Non-standard residues stand in square brackets, D forms with d. No end group written: not given here. Arg(Me2a) = CN(C)C(=N)NCCC[C@H](N)C(=O)O; Arg(Me2s) = CN=C(NC)NCCC[C@H](N)C(=O)O; Lys(Me2) = CN(C)CCCC[C@H](N)C(=O)O; pS = N[C@@H](COP(=O)(O)O)C(=O)O
Measure Name: binding score
Give bare numbers.

Binder	binding score
SGRGKGGKGLGKGGAKRHR (S G Rme2a G Kac G G Kac G L G K G G A K R H R) [H4 1-19]	0.137
ARTKQTARKSTGGKAPRKQ (A R T K Q T A Rme2a K S T G G K A P R K Q)	0
A[Arg(Me2s)]TK(Me)QTARKSTGGKAPRKQ	0
PRKQLATKAA[Arg(Me2a)][Lys(Me2)][pS]APATGG [H3 16-35]	0
PDPAK(Ac)SAPAPKK(Ac)G[pS]KKAVT [H2B 1-19]	0

Shift focus to the following entry.
Problem: Data request, read-out binding score, for ARTKQTARKSTGGKAPRKQ (A R T Kac Q T A Rme2s Kme2 S T G G K A P R K Q)
Solution: 0.0133
